# target or system: STRADα (Homo sapiens, UniProt Q7RTN6)
# Construct: wild-type and mutant forms of STRADα (residues 54–431) and MO25α (residues 1–341) were expressed individually as GST fusion proteins in E. coli; GST (cleaved yes); made in house; host or cells: E. coli
# Sequence (Q7RTN6 54-431): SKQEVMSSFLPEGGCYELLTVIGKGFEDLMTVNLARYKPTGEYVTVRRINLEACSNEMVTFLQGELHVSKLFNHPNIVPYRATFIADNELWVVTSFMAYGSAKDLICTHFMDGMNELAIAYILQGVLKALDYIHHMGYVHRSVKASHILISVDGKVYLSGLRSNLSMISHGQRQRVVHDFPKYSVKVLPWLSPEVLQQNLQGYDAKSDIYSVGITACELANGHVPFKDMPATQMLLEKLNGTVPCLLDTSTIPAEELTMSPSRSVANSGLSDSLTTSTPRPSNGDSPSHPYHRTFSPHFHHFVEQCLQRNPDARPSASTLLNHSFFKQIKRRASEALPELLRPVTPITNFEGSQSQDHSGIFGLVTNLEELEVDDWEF
# protocol description: Displacement of TNP-ATP by ATP and ADP (fluorescence)
# Type: binding
# assay context: STRADα alone, No Mg2+, displacement of 5 µM TNP-ATP; read-out: Kd ADP
experimental readout: Kd

In: Which Kd is reported for this molecule? `Nc1ncnc2c1ncn2[C@@H]1O[C@H](COP(=O)(O)OP(=O)(O)O)[C@@H](O)[C@H]1O`
Out: 2000 to 3000 nM
